B1: library; a variant is named by its letters at N, in order (parent)
chain: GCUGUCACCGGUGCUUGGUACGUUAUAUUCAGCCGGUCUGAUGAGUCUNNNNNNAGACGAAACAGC

variants of: B1; assay: normalized RNA/DNA level without ligand (relative to sTRSVctl = 100) (log10 (% of sTRSVctl)); HEK293T overexpressing SLC46A1; higher = less ribozyme self-cleavage, higher mRNA level; conditions: without (6R,S)-folinic acid; ligand present: no
reportedEndpoint: normalized RNA/DNA level without ligand (log10)
Please reply with the value in numeric form only.

Using the record for GCUGUCACCGGUGCUUGGUACGUUAUAUUCAGCCGGUCUGAUGAGUCUAGCUUGAGACGAAACAGC [AGCUUG] , report its normalized RNA/DNA level without ligand (log10).
1.96

GCUGUCACCGGUGCUUGGUACGUUAUAUUCAGCCGGUCUGAUGAGUCUCUCACUAGACGAAACAGC [CUCACU] ?
2.04

GCUGUCACCGGUGCUUGGUACGUUAUAUUCAGCCGGUCUGAUGAGUCUGUACGGAGACGAAACAGC [GUACGG] ?
1.95

GCUGUCACCGGUGCUUGGUACGUUAUAUUCAGCCGGUCUGAUGAGUCUUUAGCAAGACGAAACAGC [UUAGCA] ?
1.98

GCUGUCACCGGUGCUUGGUACGUUAUAUUCAGCCGGUCUGAUGAGUCUCCUGGUAGACGAAACAGC [CCUGGU] ?
2.04

GCUGUCACCGGUGCUUGGUACGUUAUAUUCAGCCGGUCUGAUGAGUCUUAAGCUAGACGAAACAGC [UAAGCU] ?
1.99

GCUGUCACCGGUGCUUGGUACGUUAUAUUCAGCCGGUCUGAUGAGUCUGGUCAAAGACGAAACAGC [GGUCAA] ?
1.99

GCUGUCACCGGUGCUUGGUACGUUAUAUUCAGCCGGUCUGAUGAGUCUCUCUGCAGACGAAACAGC [CUCUGC] ?
2.02
